test: yeast display, Sf9 membrane polyspecificity reagent, FACS + sequencing; frameworks hold sequencing errors
Assay Endpoint: polyreactivity (PSR sort gate)

QVQLVESGGGLVQAGGSLRLSCAASGRTFRYYAMGWYRQAPGKEREFVAAITSRSSRTYYADSVKGRFTISRDNAKNTVYLQMNSLKPEDTAVYYCNADYRRYPEFDYWGQGTQVTVSS    high polyreactivity
QVQLVESGGGLVQAGGSLRLSCAASGSTFKRYVMGWYRQAPGKERELVAAISSRGGSTYYADSVKGRFTISRDNAKNTVYLQMNSLKPEDTAVYYCASANVRAEDYWGQGTQVTVSS    high polyreactivity
QVQLVESGGGLVQAGGSLRLSCAASGRIFYHYAMGGYRPAPGKERELVAAISSSTGRSYYADSVKGRFTFSRDNAKNTVYLQMNSLKPEDSAVYYCATTPGYYGYISPRIRLYDYWGQGTQVTVSS    high polyreactivity
QVQLVESGGGLVQAGGSLRLSCAASGLIFLGNAMGWYRQAPGKERELVAAISRSGGTTYYADSVKGRFTISRDNEKNTVYLQMNSLKPEDTAVYYCNAYNPYYRATVSSRGYGYWGQGTQVTVSS    high polyreactivity

----------
experiment: yeast display, Sf9 membrane polyspecificity reagent, FACS + sequencing; frameworks hold sequencing errors
Assay Endpoint: polyreactivity (PSR sort gate)

QVQLVESGGGLVQAGGSLRLSCAASGRTFAFYTMGWYRQAPGKERELVAAITRTGSTSYADSVKGRFTISRDNAKNTVYLQMNSLKPEDTAVYYCATVGYPYTLWHQMDYWGQGTQVTVSS    low polyreactivity
QVQLVESGGGLVQSGGSLRLSCAASGFIFGGYAMGWYRQAPGTERELVASITWSGGRTFYADSVKGRFTISRDNAKNTVYLQMNSLKPEDTEVYYCAAGIYFTPYYYYPPNPFDYWGQGTQVTVSS    low polyreactivity

----------
assay: yeast display, Sf9 membrane polyspecificity reagent, FACS + sequencing; frameworks hold sequencing errors
Assay Endpoint: polyreactivity (PSR sort gate)

QVQLVESGGGLVQAGGSLRLSCAASGTFFGYALGWYRQAPGKERELVAAITPGGSTYYADSVKGRFTISRDNAKNTVYLQMNSLKPEDTAVYYCARVYSRWSYRYDYWGQGTQVTVSS    low polyreactivity
QVQLVESGGGLVQAGGSLRLSCAASGRTFWAYAMVWYRQAPGKERELVADITNGGSTYYADSVKGRFTISRDNAKNTVYLQMNSLKPEDTAVYYCNALTHWAPASYEYDYWGQGTQVTVSS    low polyreactivity

----------
test: yeast display, Sf9 membrane polyspecificity reagent, FACS + sequencing; frameworks hold sequencing errors
Assay Endpoint: polyreactivity (PSR sort gate)

QFQLVESGGGLVQAGGSLRLSCAASGSTFDTYAMGWYRQAPGKERDLFAAISGSGVRTYYADSVKGRFTISRDNAKNTVYLQMNSLKPEDTAVYYSAAAGSGYGGKQFDHGFNYWGQGTQVTVSS    high polyreactivity
QVQLVESGGGLVQAGGSLRLSCAASGLTLIRYAMGWYRQAPGKERELVAAISWSGGSTYYADSVKGRFTISRDNAKNTVYLQMNSLKPEDTAVYYCNTVYRYPDEYDYWGQGTQVTVSS    high polyreactivity
QVQLVESGGGLVQAGGSLPLSCAASGRIFNYYTMGWYRPAPGKERELVAAISTRGGRTYYADSVKGRFTISRDNAKNSVYFQMNSLKPEDTAVYYCARDIRIRIVYDGIYNYWGQGTQVTVSS    high polyreactivity
QVQLVESGGGLVQAGGSLRLSCAASGRIFYANAMGWYRQAPGKERELVAAISSGGSTYYADSVKGRFTISRDNAKNTVYLQMNSLKPEDTAVYYCAVYTHKKVRPEYDYWGQGTQVTVSS    low polyreactivity
QVQLVESGGGLVQAGGSLRLSCAASGRIFTGYAMGWYRQAPGKERELVAAISRGGSTNYADSAKGRFTISRDNAKNTVYLQLNSLKPEDTAVYYCAAGVHWDRGDYWGQGTQVTVSS    low polyreactivity
QVQHVESGGALVKAGGSLRIRCAASGITFSKYAMGWYRQAPGKEMELVAAITRSGGSTYYADSVKGRFTISRDNGKNTVYLQMNSLKPEDTAVYSCIARGYFTGGDGGSGYWGQVTQVTVSS    high polyreactivity
QVQLVDSGGGLVQEVGSLRLSCAASGSTFPFNAMGWYRQAPGKERELVATISGRGGSTYYADSVKGRFTISRDNAKNTVYLQMNSLKPEDTAVYYCAAEIHDRFDSWGQGTQVTVSS    low polyreactivity
QVQLVESGGGLVQAGGSLRLSCAASGRIFRQKAMGWYRQAPGKERELVASISSGGNTYYADSVKGRFTISRDNAKNNVYLQMNSLKPEDTAVYYCAAAKQRYYRWWTTPGYDYWGQGTQVTVSS    low polyreactivity
QVQLVESGGGLVQAGGSLRLSCAASGSTFYFNAMGWYRQAPGKEREFVAGIRYSGSSTYYADSVKGRFTISRDNAKNTVYLQMNSLKPEDTAVYYCAAERWCYTVRGYGYWGHGTQVTVSS    high polyreactivity
QVQLVESGGGLVQAGGSLRLSCAASGSISAIYTMGWYRQATGKERELVAAITGSAGSTYADSVKGRFTISRDNAKNTVYLQMNSLKPEDTAVYYCNAQPGDDVKVKLDYWGQGSQVTVSS    low polyreactivity
QVQLVESGGGLVQAGGSLRLSCAASGRTFDTNAMGWYRQAPGKERELVAAISWSAGRTYYADSVKGRFTISRDNAKNTVYLQMNSLKPEDTAVYYCAARPPFIAYSWQKQGYYWGQGTQVTVSS    low polyreactivity

----------
assay: yeast display, Sf9 membrane polyspecificity reagent, FACS + sequencing; frameworks hold sequencing errors
Assay Endpoint: polyreactivity (PSR sort gate)

QVQLVESGGGLVQAGGILRLSCAASGFIFWYNAMGWYRQAPGKERELVARINIGGTTSYADSVKGRFTISRDNAKNNVYLQMNSLKREDTAVYYCNAVQGRQYDYWGQGTQVNVSS    low polyreactivity
QVQLVESCGGLVQAGGSLRLSCDASVSIFYRNAMGWYRQAPGKERELVAAIRSGGSTNYADSVKGRFTISRDNAKNTVYLQMNSLKPEDTAVYYCAAGYFWRQYKMGYWGQGTQVTVSS    high polyreactivity
QVQLVESGGGLVQAGGSLRLSCAASGRTFVWNVMGWYRQAPGKEREFVAAISGGSTYYADSVKGRFTISRDNAKNTVYLKMNSLKQEDTPVYYCAAASKLHPRYEYWGQGTQVTVSS    low polyreactivity
QVQLVESGGGLVQAGGSLRLSCAASGSIFGRYAMGWYRQAPGKERELVADISWSGGRTYYADSVKGRFTISRDNAKNTVYLQMNSLKPEDTAVYYCNKVYRWFTRFDYWGQGTQLTVSS    high polyreactivity
QVQLVESGGGLVQAGGSLRVSCAASGSIFSYYAMGWYRQAPGKEREFVAAISWSGGSTYYADSVKGRFTISRDNAKNTVYLQMNSLKPEDTAVYYCAAELSLSWLVPDVPYYYWGQGTQVTVSS    low polyreactivity
QVQLVESGGGLFQAGGSLRLSCAASGIIFPYYVMGWSRQAPGTEREFVATISWSGGRTYYADSVKGRFTISRDNAKNTVYFQMNSLKPEDTAVYYCAAAKHYYNGYGYWGQGTQVTVSS    high polyreactivity
QVELVESGGGLVQAGGSLRLSCAASGGTFYRYAMGWYRQAPGKEREFVASITQRGGRTYYADSVMGRFTISRDNAKNTVYLQMNSLIPEDTACYYCAAQGYKYWHGDGSDYWGQGSQVTVSS    high polyreactivity
QVQLVESGGGLVQAGGSLRLSCAASGLTFDVYAMGWYRQAPGKERELVAALSTSGGRTYSADSVKGRFTISRDNAKNTVYLQMNSLKPEVTAVYYCNAGYDYYWRYYWYWYAFNYWGQGTQVTVSS    high polyreactivity
QVQLVESGGGLVQAGGSLRLSCAASGRTFVFYAMGWYRQAPGKESEFVARITWSGGRTFYADSVKGRFTISRDNAKNTVYLQMNSLKPEDTAVYYCAARGHDAVIATRYDYWGQGTQVTVSS    high polyreactivity
QVQLVESGGGLVQAGGSLRLSCAASGSTFKPYAMGWYRQAPGKERELVAAITWTGGSTYYADSVKGRFTISRDNAKNTVYLEMNSLKPDDTAVYYCNAYLRWYITLLRYLAGGDYWGQGTQVTVSS    high polyreactivity
QVQLVESGGGLVQAGGSLRLSCAASGIILLRYTMGWYRQAPGKERELVAAISRSAGRTYYADSVKGRFTISRDNAKNTVYLQMNSLKPEDTAVYYCNKASWYNGEIDYWGQVTQVTVSS    high polyreactivity

----------
assay: yeast display, Sf9 membrane polyspecificity reagent, FACS + sequencing; frameworks hold sequencing errors
Assay Endpoint: polyreactivity (PSR sort gate)

QVQLVESGGGLVQAGGSLRLSCAASGFTFPWYAMGWYRQAPGKERELVAVISSSGGSTYYADSVKGRFTISRDNAKNTVYLQMNSLKPEDTAVYYCNKDYYKRAYLFGYWGQGTQVTVSS    high polyreactivity
QVQLVESGGGLVQAGGSLRLSCAASGSTRLYAMGWYRQAPGKERELVAAIRSSGSSTYYADSVKGRFTISRDNAKNTVYLQMNSLKPEDTAVYYCNADRIRKGWRYDYWGQGTQVTVSS    high polyreactivity
QVQLVESGGGLVQAGGSHRLSCAATGNTFHTNAIGWYRQAPGKERELVAAITGGGSTYYADSVKGRFTISRDNAKNTVYLQMNSLKPEDTAVYYCNTDVPYGLDVSDTIDYYYWGQGTQVTVSS    low polyreactivity
QVQLVESGGGLVQAGGSLRLSCAASGGIFYAYDMGWYRQAPGKERELVAAITWTGGTTYYADSVKGRFTISRDNAKNTVYLQMNSLKPEDTAVYYCAADDGTNSTARDKDDYYYWGQGTQVTVSS    low polyreactivity
QVQLVESGGGLVQAGGSLRLSCAASGRTFNIYDMGGYIPAPGTERELVAAITGRGTGTYYADSVKGRFTISRDNAKNTVYLQMNSLKPEDTAVYFCAAVRRWYYPALSEHDYWGQGTQVTVSS    low polyreactivity
QVQLVESGGGLVQAGGSLRLSCAASGFTFPAYTMGWYRQAPGKEREWVAAITSSGGNTYYADSVKGRFTISRDNAKNTVYLQMNSLKPEDTAVYYCATVSVRWPSNDHVRYDYWGQGTQVTVSS    low polyreactivity
QVQLVESGGGLVQAGGILRLSCAASGSTFSSNAMGWYRQAPGKERELVAAISVNGGSTNYADSVKVRFTISRDNAKNTVYLQMNSLKPEDTAVYYCAAEPAKVAFYRGDYWGQGTEVTVSS    low polyreactivity
QVQLVESGGGLVQAGGSLRLSCAASGRIFYGYARGWYRQAPGKDRELVAAIRWYGGNTYYADSVKGRFTISRDNAKNTVYLQMNSLKPEDTAVYYCNARTEYASSRYYYWGQGTQVTVSS    high polyreactivity
QVQLVDSGGGIVQAGGSLRLSCAASGLTFSDYAMGWYRQAPGKEREFVAAITRNGGSTRYADSVKGRFTISRDNAKNTVYLQMNSLKPEDTAVDYCATDVGFGSKQRPHRPGYGYWGQGTQVTVSS    low polyreactivity
QVQLVESGGGLVQAGGSLRLTCAASGRIFNTYAMGWYRQAPGKERELVAAITRSAGRTYYADSVKGRFTISRDNAKNTVYLQMNSLKPEDTAVYYCNAEGSSVLTGYCGYPPYWDTYDYWGQGTQVTLSS    low polyreactivity
QVQLVESGGGLVQAGGSLRLSCAASGRIFGYNAMGWYRQAPGKERELVAVITYSGGSTYYADSVKGRFTISRDNAKNTVYLQMNSMIPEDTAVYYCAADYQPYSYFWQGGTRDMDYWGQGTQVTVSS    low polyreactivity
